These measurements were taken from patent US20230097700A1.

So I've got a bunch of compounds here, and I need their Percent suppression (%) values.
system: ConA induced mouse cytokine production model; experiment: ConA induced mouse cytokine production model, IFN-γ in the plasma; type: in vivo, mouse (Balb/c); conditions: 30 mg/kg oral, one hour before second ConA treatment
Form entry: value (%) — number only.

Query: Hello, please tell me recorded Percent suppression (%) for this one: CC(C)C(OC(=O)[C@@H](N)Cc1cccc(S(=O)(=O)N2CC(Oc3ccccc3)(c3ccc(F)cc3)C2)c1)C(=O)N(C)C.Cl (stereo partly drawn) [Example 93]
Reply: 34

Query: Hello, please tell me recorded Percent suppression (%) for this one: CC(C)C(OC(=O)[C@@H](N)Cc1cccc(S(=O)(=O)N2CC(Oc3ccc(F)cc3)(c3ccc(F)cn3)C2)c1)C(=O)N(C)C.Cl.Cl (stereo partly drawn) [Example 69]
Reply: 44

Query: Hello, please tell me recorded Percent suppression (%) for this one: CC(C)C(OC(=O)[C@@H](N)Cc1cccc(S(=O)(=O)N2CC(Oc3ccccc3)(c3ccccc3)C2)c1)C(=O)N(C)C.Cl (stereo partly drawn) [Example 91]
Reply: 53

Query: Hello, please tell me recorded Percent suppression (%) for this one: CC(OC(=O)[C@@H](N)Cc1cccc(S(=O)(=O)N2CC(Oc3ccc(F)cc3)(c3ccc(F)cn3)C2)c1)C(=O)N(C)C.Cl.Cl (stereo partly drawn) [Example 62]
Reply: 54

Query: Hello, please tell me recorded Percent suppression (%) for this one: Cl.[2H]c1c([2H])c([2H])c(OC2(c3ccc(F)cc3)CN(S(=O)(=O)c3cccc(C[C@H](N)C(=O)OC(C(=O)N(C)C)C(C)C)c3)C2)c([2H])c1[2H] (stereo partly drawn) [Example 27]
Reply: 58

Query: Hello, please tell me recorded Percent suppression (%) for this one: Cl.[2H]c1c([2H])c([2H])c(OC2(c3ccccc3)CN(S(=O)(=O)c3cccc(C[C@H](N)C(=O)OC(C(=O)N(C)C)C(C)C)c3)C2)c([2H])c1[2H] (stereo partly drawn) [Example 25]
Reply: 51
